# System: SK-MEL-28 melanoma
# Procedure details: NCI-60 one-dose screen, 48 h (100 = growth as untreated, 0 = no growth, -100 = all killed)
# Study conditions: 10 µM unless noted
This is part of a sample that, as a whole, favours compounds with a hit. Of some 83,000 tested, about 20% had one in any assay.
Please enter 1.0 where growth is greater than or equal to 80%, and 0.0 where it is lower.

COc1ccc(C2=C(CN)C(O)NC(=NCC(=O)c3ccc4ccccc4c3)N2)cc1 (centres undefined)    1.0
CC(C)=CCc1cc(O)c(O)c2oc3cc(O)cc(O)c3c(=O)c12    1.0
C[C@]12CCc3c(ccc4cc(O)ccc34)[C@@H]1C[C@H](O)[C@@H]2O    1.0
Nc1n[nH]c2cccc(C#Cc3cccc(NC(=O)c4ccc(N5CCOCC5)c(C(F)(F)F)c4)c3)c12    0.0
COC(=O)c1nc(-c2ccccc2)oc1S(=O)(=O)N(C)CCO    0.0
COc1ccc(-c2nc(Cl)c3c(C)nn(-c4ccc(F)cc4)c3n2)cc1    1.0
C=C1CCC2C3(C)COC(c4ccc(NC(C)=O)cc4)OC3CCC2(C)C1C/C=C1/C(=O)OCC1O (centres undefined)    1.0
Nc1nc(Nc2ccc(F)cc2)nn1C(=O)c1cc(Cl)ccc1Cl    1.0
O=C1c2cccc3cccc(c23)C(=O)N1N1C(=O)c2cccc3c(N4CCNCC4)ccc(c23)C1=O    1.0
O=C(N/N=C/c1ccc(O)cc1O)c1cccc(Nc2ccnc(C(F)(F)F)c2)c1    0.0
Cc1c(CC(=O)OCCO)cc(-c2ccc(Cl)cc2)n1-c1ccccc1    1.0
Cc1ccc2[nH]c(=S)[nH]c(=O)c2c1    1.0
COc1c(F)cc(-n2c(C(=O)N3CC(F)C3)cc3cccnc32)cc1F    1.0

---

# System: SN12C renal
# Procedure details: NCI-60 one-dose screen, 48 h
# Study conditions: 10 µM unless noted
This is part of a sample that, as a whole, favours compounds with a hit. Of some 83,000 tested, about 20% had one in any assay. Calls of active or inactive are those of the source. Rule for the calls: active = growth percent below 10; inactive = the rest.
Outcomes: active, inactive

C=C1CCC2C3(C)COC(c4ccc(NC(C)=O)cc4)OC3CCC2(C)C1C/C=C1/C(=O)OCC1O (stereo not drawn)    inactive
CN1C(=O)N(C)C2(c3ccccc3)N(CC(=O)Nc3ccccc3O)C(=O)NC12c1ccccc1 (stereo not drawn)    inactive
NCCOCCOc1ccccc1    inactive
O=C(CCCOc1ccc(Br)cc1)Nc1ncc(Cc2ccc(F)cc2)s1    inactive
O=c1c(/C=C/c2ccco2)nnc2sc(Nc3ccc(Cl)cc3)nn12    inactive
COc1ccc(-c2cc(-c3cccnc3)nc3sc4c(Cl)nnnc4c23)cc1OC    inactive
COc1ccc(/C=N/NC(=O)CN2CCN(c3cc4c(cc3F)c(=O)c(C(=O)O)cn4C3CC3)CC2)cc1O    inactive
CCOC(=O)c1cnn(-c2ccc(S(N)(=O)=O)cc2)c1N    inactive
COc1cc(/C=C2/C=C(c3ccc(C(C)(C)C)cc3)N(CCc3ccc(S(N)(=O)=O)cc3)C2=O)cc(OC)c1OC    inactive
Nc1c(C(=O)Nc2ccncc2)sc2nc3c(cc12)CCCCCCCC3    active
CCOC(=O)c1cc2c(n1Cc1cc(OC)cc(OC)c1Br)-c1nc(NC(C)=O)sc1CCC2    inactive
CCOC(=O)C1=C(C)N=C2SC=C(c3ccc(F)cc3)N2[C@H]1c1cn(-c2ccccc2)nc1-c1ccc(Cl)cc1    inactive
CC(Sc1ccccc1)C(=O)O (stereo not drawn)    inactive
Nc1nc(Nc2ccc(F)cc2)nn1C(=O)c1cc(Cl)ccc1Cl    inactive
CCCNNC(=O)/C=C/c1ccc(CNCCc2c(C)[nH]c3ccccc23)cc1    inactive
CCCCC(NC(=O)CN1C(=O)/C(=C/C(C)=C/c2ccccc2)SC1=S)C(=O)O (stereo not drawn)    inactive
O=C1c2cccc3cccc(c23)C(=O)N1N1C(=O)c2cccc3c(N4CCNCC4)ccc(c23)C1=O    inactive
CC1=C2[C@@H](CC1)[C@]1(C)O[C@@](C(C)C)(C[C@H]1OC(=O)CO)[C@H]2OC(=O)C1CC1c1ccccc1 (stereo partly drawn)    inactive
CC/C(=C(/c1ccc(Cl)cc1)c1ccc(OCCN2CCOCC2)cc1)c1ccccc1    inactive
Fc1ccc(NC(c2ccc(F)cc2)C2CCN(CCCCc3ccccc3)CC2)cc1 (stereo not drawn)    inactive
Nc1n[nH]c2cccc(C#Cc3cccc(NC(=O)c4ccc(N5CCOCC5)c(C(F)(F)F)c4)c3)c12    active
C=C(CNCCc1ccc(O)cc1)[C@@H]1CC[C@]2(CO)CC[C@]3(C)[C@H](CC[C@@H]4[C@@]5(C)CCC(NCCc6ccc(O)cc6)C(C)(C)[C@@H]5CC[C@]43C)[C@@H]12 (stereo partly drawn)    active
COc1cc(/C=C(/c2ccccc2)[N+](=O)[O-])c(OC)c2c1OCO2    active
c1ccc(-c2cc(-c3cc(-c4ccccc4)on3)no2)cc1    inactive
Cc1nc2sc(C(=O)Nc3cccc(Cl)c3C)c(N)c2cc1C(O)c1ccccc1 (stereo not drawn)    active
Cc1ccc(/C=C(\C#N)c2cc3ccccc3[nH]2)cc1    inactive
CC/C(=C(/c1ccc(O)cc1)c1ccc(OCCN2CCCCCC2)cc1)c1ccc(Cl)cc1    inactive
OB(O)c1ccsc1-c1nc2ccc3[nH]ncc3c2c2c1CCCC2    inactive
O=C1C(Nc2ccc(Cl)cc2)=C(I)C(=O)c2ncccc21    active
COc1ccc(-c2cc(-c3cccc(Cl)c3)c(C#N)c(=O)[nH]2)c(OC)c1    inactive
Nc1ccc(S(=O)(=O)c2ccc(N)cc2)cc1    inactive
NC1=CC(=O)c2cccnc2C1=O    active
CN(C)C1CCN(C(=O)c2ccc(NC(=O)Nc3ccc(-c4nc(N5CCOCC5)c5cccn5n4)cc3)cc2)CC1    active
COc1ccc(/C=C/C(=O)c2cc3c(N)c(C(=O)Nc4ccccc4Cl)sc3nc2C)cc1    inactive
COc1ccc(Oc2nc(Nc3ccc(N4CCOCC4)cc3)ncc2NC(=O)c2cccc(C(F)(F)F)c2)cc1    inactive
C=C1CC[C@@H]2[C@](C)(COC(C)=O)[C@H](OC(C)=O)CC[C@@]2(C)[C@@H]1CC(Nc1ccc(S(=O)(=O)Nc2nccs2)cc1)C1=CCOC1=O (stereo partly drawn)    inactive
CN1CCN(Cc2ccc(NC(=O)c3cccc(C#Cc4c(N)ncc5ccc(F)cc45)c3)cc2C(F)(F)F)CC1    active
Nn1c(-c2ccc(Cl)cc2)nc2c(-c3ccc(Cl)cc3)nc3ccc(Cl)cc3c2c1=O    active

---

# Test system: ACHN renal
# Procedure details: NCI-60 one-dose screen, 48 h (100 = growth as untreated, 0 = no growth, -100 = all killed)
# Study conditions: 10 µM unless noted
About 83,000 compounds went through this panel and 20% of them were active in at least one assay; those are over-represented in the sample as a whole.
Metric: growth (%)

CCOC(=O)C1=C(C)N=C2SC=C(c3ccc(F)cc3)N2[C@H]1c1cn(-c2ccccc2)nc1-c1ccc(Cl)cc1    101
CN1Cn2c(ccc2C(F)(F)F)C(=O)CS1(=O)=O    99.4
[2H]C([2H])([2H])Oc1cc(F)ccc1/C=C/C(=O)/C=C(/C=C/c1ccc(F)cc1OC([2H])([2H])[2H])OB(F)F    14.8
COc1ccc(/C=C(\C#N)c2cc3ccccc3[nH]2)cc1    56.5
CN(C)C1CCN(C(=O)c2ccc(NC(=O)Nc3ccc(-c4nc(N5CCOCC5)c5cccn5n4)cc3)cc2)CC1    2.19
O=C1C(Nc2ccc(Cl)cc2)=C(I)C(=O)c2ncccc21    -98.8
O=C(NNC(=S)Nc1ccccc1)c1ccncc1    103
O=C1C(c2c[nH]c3ccccc23)=C(c2coc3cc(Br)ccc23)C(=O)N1O    110
Cc1cccc(-c2nnc(SCC(=O)Nc3ncc(Cc4ccccc4)s3)n2N2C(=O)CSC2=S)c1    43.8

---

# System: ACHN renal
# Procedure details: NCI-60 one-dose screen, 48 h (100 = growth as untreated, 0 = no growth, -100 = all killed)
# Study conditions: 10 µM unless noted
About 83,000 compounds went through this panel and 20% of them were active in at least one assay; those are over-represented in the sample as a whole.
Metric: growth (%)

COc1ccc(S(=O)(=O)Nc2cc(Sc3cccc4cccnc34)c(O)c3ccccc23)cc1    7.43
CCOC(=O)c1nc2c3ccccc3cnn2c1C(=O)c1ccc(OC)cc1    100
O=C(Cc1ccc(F)cc1)c1ccccc1    110
CN(Cc1ccccc1)c1nc(Cl)c(C2CC(c3ccc4c(c3)OCO4)=NN2c2cc(Cl)cc(Cl)c2)s1 (stereo not given)    97
CCCCC(NC(=O)CN1C(=O)/C(=C/C(C)=C/c2ccccc2)SC1=S)C(=O)O (stereo not given)    97.2

Data credit: PubChem BioAssay (NCI)
